# target-desc: UniProtKB P0A749
# Sequence (P0A749 whole entry): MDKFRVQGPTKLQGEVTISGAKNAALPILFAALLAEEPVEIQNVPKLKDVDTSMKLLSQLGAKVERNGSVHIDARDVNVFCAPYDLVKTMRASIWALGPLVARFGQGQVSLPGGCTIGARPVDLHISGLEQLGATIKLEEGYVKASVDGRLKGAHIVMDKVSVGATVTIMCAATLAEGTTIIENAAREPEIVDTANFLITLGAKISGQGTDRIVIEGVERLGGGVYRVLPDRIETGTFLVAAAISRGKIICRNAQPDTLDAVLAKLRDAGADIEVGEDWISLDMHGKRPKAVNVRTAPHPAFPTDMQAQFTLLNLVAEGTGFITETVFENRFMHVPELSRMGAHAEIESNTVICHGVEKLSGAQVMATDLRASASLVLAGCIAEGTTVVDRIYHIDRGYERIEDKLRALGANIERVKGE
# assay-name: MurA inhibition assay (malachite green, orthophosphate release)
# Assay type: biochemical
# setup-conditions: 30 min preincubation; read-out: IC50, 30 min
Reported IC50 values follow for various compounds
Provide the reading as a plain figure in µM.

Task: Lab request: please report IC50 under test system UniProtKB P0A749 for O=C1c2c(O)cc(O)cc2O[C@H](c2cc(O)c(O)c(O)c2)[C@H]1O [Compound 49, ampelopsin]
Result: 0.48

Task: Lab request: please report IC50 under test system UniProtKB P0A749 for O=c1cc(-c2ccccc2)oc2cc(O)c(O)c(O)c12 [Compound 26, baicalein]
Result: 61

Task: Lab request: please report IC50 under test system UniProtKB P0A749 for O=c1cc(-c2ccc(O)c(O)c2)oc2cc(O)cc(O)c12 [Compound 17, luteolin]
Result: 41.5

Task: Lab request: please report IC50 under test system UniProtKB P0A749 for C[C@@H]1O[C@@H](Oc2c(-c3ccc(O)c(O)c3)oc3cc(O)cc(O)c3c2=O)[C@H](O)[C@H](O)[C@H]1O [Compound 10, quercitrin]
Result: 33

Task: Lab request: please report IC50 under test system UniProtKB P0A749 for COc1cc(O)c2c(=O)c(O)c(-c3ccc(O)c(O)c3)oc2c1 [Compound 8, rhamnetin]
Result: 13

Let's switch to this compound now.
Task: Lab request: please report IC50 under test system UniProtKB P0A749 for O=C1c2c(O)cc(O)cc2OC(c2ccc(O)c(O)c2)C1O (centres unmarked) [Compound 47, taxifolin]
Result: 4.5
